Reference for the values: paper PMC6877527

Target: VC1710 (PdeS) (Vibrio cholerae, UniProt Q9KRD2)
pKd: −log10 of the molar value.
Measurement Label: pKd

IN: Report measured pKd; entry is Nc1nc2c(ncn2[C@@H]2O[C@@H]3CO[P@](=O)(O)O[C@H]4[C@@H](O)[C@H](n5cnc6c(=O)[nH]c(N)nc65)O[C@@H]4CO[P@](=O)(O)O[C@H]3[C@H]2O)c(=O)[nH]1
OUT: ~5.06
